Test system: Human immunodeficiency virus 1
Test: Effective concentration at which 50% of the HIV-IIIB-infected human lymphocyte-derived CEM cells protected from HIV-1 infection
Conditions: Human immunodeficiency virus 1, CCRF-CEM
pEC50: −log10 of the molar value.
Below, each entry is listed with its recorded pEC50.

- Molecule: "Cc1cc(SC2=C(O)OC(CCc3ccccc3)(C(C)C)CC2=O)c(C(C)(C)C)cc1NS(=O)(=O)c1ccc(C(F)(F)F)cc1 (configuration not stated)"
  Study System: "Human immunodeficiency virus 1"
  pEC50: 6.15
- Molecule: "Cc1cc(SC2=C(O)OC(C)(CCc3ccc(O)cc3)CC2=O)c(C(C)(C)C)cc1NS(=O)(=O)c1ccc(C#N)cc1 (configuration not stated)"
  Study System: "Human immunodeficiency virus 1"
  pEC50: 5.30
- Molecule: "CCNS(=O)(=O)Oc1cc(C(C)(C)C)c(SC2=C(O)OC(CCc3ccc(N)cc3)(C(C)C)CC2=O)cc1C (configuration not stated)"
  Study System: "Human immunodeficiency virus 1"
  pEC50: 6.15
- Molecule: "Cc1cc(SC2=C(O)OC(CCc3ccc(O)cc3)(C3CCCCC3)CC2=O)c(C(C)(C)C)cc1OS(=O)(=O)c1ccc(F)cc1 (configuration not stated)"
  Study System: "Human immunodeficiency virus 1"
  pEC50: 5.02
- Molecule: "Cc1cc(SC2=C(O)OC(C)(CCc3ccc(O)cc3)CC2=O)c(C(C)(C)C)cc1NS(=O)(=O)c1ccc(C(F)(F)F)cc1 (configuration not stated)"
  Study System: "Human immunodeficiency virus 1"
  pEC50: 5.46
- Molecule: "Cc1cc(SC2=C(O)OC(CCc3ccc(O)cc3)(C(C)C)CC2=O)c(C(C)(C)C)cc1NS(=O)(=O)c1ccc(F)cc1 (configuration not stated)"
  Study System: "Human immunodeficiency virus 1"
  pEC50: 5.74
- Molecule: "Cc1cc(SC2=C(O)OC(C)(CCc3ccc(O)cc3)CC2=O)c(C(C)(C)C)cc1NS(=O)(=O)Cn1ccnc1 (configuration not stated)"
  Study System: "Human immunodeficiency virus 1"
  pEC50: 4.24

====

Listing of recorded residual activity at 100 µM by entry.
Molecular target: CYP3A4 (Homo sapiens, UniProt P08684)
Sequence (P08684 whole entry): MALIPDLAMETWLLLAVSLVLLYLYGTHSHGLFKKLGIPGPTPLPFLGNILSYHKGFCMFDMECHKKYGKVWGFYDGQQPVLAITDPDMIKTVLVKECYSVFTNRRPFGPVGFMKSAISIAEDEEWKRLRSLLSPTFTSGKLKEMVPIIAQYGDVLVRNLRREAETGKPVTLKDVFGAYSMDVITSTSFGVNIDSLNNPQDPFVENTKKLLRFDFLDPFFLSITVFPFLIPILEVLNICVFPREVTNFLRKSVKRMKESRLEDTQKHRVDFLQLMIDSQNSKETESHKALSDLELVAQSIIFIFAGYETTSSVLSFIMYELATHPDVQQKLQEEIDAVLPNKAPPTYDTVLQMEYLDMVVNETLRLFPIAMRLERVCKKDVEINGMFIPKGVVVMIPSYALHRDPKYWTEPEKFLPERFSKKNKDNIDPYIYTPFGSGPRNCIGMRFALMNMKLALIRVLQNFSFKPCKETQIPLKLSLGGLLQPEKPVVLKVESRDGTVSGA
Experiment: Residual activity of cytochrome P4503A4 at 100 uM

- Compound: "Cc1cc(SC2=C(O)O[C@](CCc3ccc(O)cc3)(C(C)C)CC2=O)c(C(C)(C)C)cc1N (stereo in doubt; 1S)"
  Units Text: "%"
  residual activity at 100 µM: 41.1
- Compound: "Cc1cc(SC2=C(O)OC(CCc3ccc(O)cc3)(C(C)C)CC2=O)c(C(C)(C)C)cc1OS(=O)(=O)c1ccc(C#N)cc1 (configuration not stated)"
  Units Text: "%"
  residual activity at 100 µM: 6.86

====

Assay: Concentration which elicits cytotoxicity in 50% of uninfected human lymphocyte derived CEM cells
Format: cell-based, CCRF-CEM
Settings: uninfected CCRF-CEM cells, read-out: TC50 (the source's name)
Classify: t when CC50 is strictly less than 70 µM; f when CC50 is not.

- Molecule: "Cc1cc(SC2=C(O)OC(CCc3ccc(O)cc3)(C(C)C)CC2=O)c(C(C)(C)C)cc1OS(=O)(=O)c1ccccn1 (stereo unspecified)"
  Assigned Category: "f"
- Molecule: "Cc1cc(SC2=C(O)OC(CCc3ccc(O)cc3)(C(C)C)CC2=O)c(C(C)(C)C)cc1NS(=O)(=O)c1ccccc1 (stereo unspecified)"
  Assigned Category: "f"
- Molecule: "Cc1cc(SC2=C(O)O[C@](CCc3ccc(O)cc3)(C(C)C)CC2=O)c(C(C)(C)C)cc1NS(=O)(=O)c1ccc(C(F)(F)F)cn1"
  Assigned Category: "t"
- Molecule: "Cc1cc(SC2=C(O)OC(CCc3ccc(O)cc3)(C(C)C)CC2=O)c(C(C)(C)C)cc1OS(C)(=O)=O (stereo unspecified)"
  Assigned Category: "f"
- Molecule: "CCNS(=O)(=O)Oc1cc(C(C)(C)C)c(SC2=C(O)OC(CCc3ccc(N)cc3)(C(C)C)CC2=O)cc1C (stereo unspecified)"
  Assigned Category: "f"
- Molecule: "Cc1cc(SC2=C(O)OC(CCc3ccc(O)cc3)(C(C)C)CC2=O)c(C(C)(C)C)cc1OS(=O)(=O)c1ccc(F)cc1 (stereo unspecified)"
  Assigned Category: "t"
- Molecule: "Cc1cc(SC2=C(O)OC(C)(CCc3ccc(O)cc3)CC2=O)c(C(C)(C)C)cc1NS(=O)(=O)c1ccc(C#N)cc1 (stereo unspecified)"
  Assigned Category: "f"
- Molecule: "Cc1cc(SC2=C(O)OC(CCc3ccc(O)cc3)(C(C)C)CC2=O)c(C(C)(C)C)cc1NS(=O)(=O)c1ccc(Cl)cc1 (stereo unspecified)"
  Assigned Category: "t"
- Molecule: "CCNS(=O)(=O)Oc1cc(C(C)(C)C)c(SC2=C(O)OC(CCc3ccccc3)(C(C)C)CC2=O)cc1C (stereo unspecified)"
  Assigned Category: "t"
- Molecule: "Cc1cc(SC2=C(O)OC(CCc3ccc(O)cc3)(C(C)C)CC2=O)c(C(C)(C)C)cc1NS(=O)(=O)c1ccc(C#N)cc1 (stereo unspecified)"
  Assigned Category: "f"
- Molecule: "Cc1cc(SC2=C(O)OC(CCc3ccccc3)(C(C)C)CC2=O)c(C(C)(C)C)cc1O (stereo unspecified)"
  Assigned Category: "t"
- Molecule: "Cc1cc(SC2=C(O)OC(CCc3ccc(O)cc3)(C(C)C)CC2=O)c(C(C)(C)C)cc1NS(=O)(=O)c1cccc(C#N)c1 (stereo unspecified)"
  Assigned Category: "f"
- Molecule: "Cc1cc(SC2=C(O)OC(C)(CCc3ccc(O)cc3)CC2=O)c(C(C)(C)C)cc1NS(=O)(=O)c1ccc(-c2cccs2)cc1 (stereo unspecified)"
  Assigned Category: "f"
- Molecule: "Cc1cc(SC2=C(O)OC(CCc3ccc(O)cc3)(C(C)C)CC2=O)c(C(C)(C)C)cc1N (stereo unspecified)"
  Assigned Category: "f"
- Molecule: "Cc1cc(SC2=C(O)OC(CCc3ccccc3)(C(C)C)CC2=O)c(C(C)(C)C)cc1NS(=O)(=O)c1ccccn1 (stereo unspecified)"
  Assigned Category: "t"
- Molecule: "Cc1cc(SC2=C(O)O[C@](CCc3ccc(O)cc3)(C(C)C)CC2=O)c(C(C)(C)C)cc1N (stereo in doubt; 1S)"
  Assigned Category: "f"
- Molecule: "Cc1cc(SC2=C(O)OC(CCc3ccccc3)(C(C)C)CC2=O)c(C(C)(C)C)cc1NS(=O)(=O)c1ccc(C(F)(F)F)cn1 (stereo unspecified)"
  Assigned Category: "t"
- Molecule: "Cc1cc(SC2=C(O)OC(CCc3ccccc3)(C(C)C)CC2=O)c(C(C)(C)C)cc1NS(=O)(=O)c1ccc(C(F)(F)F)cc1 (stereo unspecified)"
  Assigned Category: "t"
- Molecule: "Cc1cc(SC2=C(O)OC(C)(CCc3ccc(O)cc3)CC2=O)c(C(C)(C)C)cc1NS(=O)(=O)c1ccccc1 (stereo unspecified)"
  Assigned Category: "f"
- Molecule: "Cc1cc(SC2=C(O)OC(CCc3ccc(O)cc3)(C(C)C)CC2=O)c(C(C)(C)C)cc1NS(=O)(=O)c1cccnc1 (stereo unspecified)"
  Assigned Category: "f"
- Molecule: "Cc1cc(SC2=C(O)OC(CCc3ccc(O)cc3)(C3CCCC3)CC2=O)c(C(C)(C)C)cc1NS(=O)(=O)c1ccccc1 (stereo unspecified)"
  Assigned Category: "t"
- Molecule: "Cc1cc(SC2=C(O)OC(CCc3ccc(N)cc3)(C(C)C)CC2=O)c(C(C)(C)C)cc1OS(=O)(=O)N(C)C (stereo unspecified)"
  Assigned Category: "t"
- Molecule: "Cc1cc(SC2=C(O)OC(CCc3ccc(O)cc3)(C(C)C)CC2=O)c(C(C)(C)C)cc1NS(=O)(=O)c1ccc(C(F)(F)F)cc1 (stereo unspecified)"
  Assigned Category: "t"
- Molecule: "Cc1cc(SC2=C(O)OC(C)(CCc3ccc(O)cc3)CC2=O)c(C(C)(C)C)cc1N (stereo unspecified)"
  Assigned Category: "f"
- Molecule: "Cc1cc(SC2=C(O)OC(C)(CCc3ccc(O)cc3)CC2=O)c(C(C)(C)C)cc1NS(=O)(=O)Cn1ccnc1 (stereo unspecified)"
  Assigned Category: "f"
- Molecule: "Cc1cc(SC2=C(O)OC(CCc3ccc(N)cc3)(C(C)C)CC2=O)c(C(C)(C)C)cc1OS(=O)(=O)c1cccs1 (stereo unspecified)"
  Assigned Category: "t"
- Molecule: "CCNS(=O)(=O)Nc1cc(C(C)(C)C)c(SC2=C(O)OC(CCc3ccccc3)(C(C)C)CC2=O)cc1C (stereo unspecified)"
  Assigned Category: "f"

Source of measurements: ChEMBL document CHEMBL1132961
